Target: Metallo-beta-lactamase type 2 (Bacteria, UniProt C7C422)
Sequence (C7C422 whole entry): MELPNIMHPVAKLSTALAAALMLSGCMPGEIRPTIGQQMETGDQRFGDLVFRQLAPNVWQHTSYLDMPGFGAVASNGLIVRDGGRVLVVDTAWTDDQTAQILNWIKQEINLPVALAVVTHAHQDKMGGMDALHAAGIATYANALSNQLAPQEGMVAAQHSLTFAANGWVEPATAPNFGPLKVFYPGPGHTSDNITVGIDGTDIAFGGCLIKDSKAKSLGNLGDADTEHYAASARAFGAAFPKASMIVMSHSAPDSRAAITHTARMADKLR
Experiment: Inhibition of bacterial NDM-1 (unknown origin) using nitrocefin as substrate
property_measured: IC50

# return IC50 of COC(=O)[C@H]1CN(C(=O)CN(Cc2ccccn2)Cc2ccccn2)C[C@@H]1c1ccc(OCc2ccccc2)c(OC)c1 (racemic) (system: Metallo-beta-lactamase type 2 (Bacteria, UniProt C7C422))
51 µM

###

Molecular target: Angiotensin-converting enzyme (Homo sapiens, UniProt P12821)
Sequence (P12821 whole entry): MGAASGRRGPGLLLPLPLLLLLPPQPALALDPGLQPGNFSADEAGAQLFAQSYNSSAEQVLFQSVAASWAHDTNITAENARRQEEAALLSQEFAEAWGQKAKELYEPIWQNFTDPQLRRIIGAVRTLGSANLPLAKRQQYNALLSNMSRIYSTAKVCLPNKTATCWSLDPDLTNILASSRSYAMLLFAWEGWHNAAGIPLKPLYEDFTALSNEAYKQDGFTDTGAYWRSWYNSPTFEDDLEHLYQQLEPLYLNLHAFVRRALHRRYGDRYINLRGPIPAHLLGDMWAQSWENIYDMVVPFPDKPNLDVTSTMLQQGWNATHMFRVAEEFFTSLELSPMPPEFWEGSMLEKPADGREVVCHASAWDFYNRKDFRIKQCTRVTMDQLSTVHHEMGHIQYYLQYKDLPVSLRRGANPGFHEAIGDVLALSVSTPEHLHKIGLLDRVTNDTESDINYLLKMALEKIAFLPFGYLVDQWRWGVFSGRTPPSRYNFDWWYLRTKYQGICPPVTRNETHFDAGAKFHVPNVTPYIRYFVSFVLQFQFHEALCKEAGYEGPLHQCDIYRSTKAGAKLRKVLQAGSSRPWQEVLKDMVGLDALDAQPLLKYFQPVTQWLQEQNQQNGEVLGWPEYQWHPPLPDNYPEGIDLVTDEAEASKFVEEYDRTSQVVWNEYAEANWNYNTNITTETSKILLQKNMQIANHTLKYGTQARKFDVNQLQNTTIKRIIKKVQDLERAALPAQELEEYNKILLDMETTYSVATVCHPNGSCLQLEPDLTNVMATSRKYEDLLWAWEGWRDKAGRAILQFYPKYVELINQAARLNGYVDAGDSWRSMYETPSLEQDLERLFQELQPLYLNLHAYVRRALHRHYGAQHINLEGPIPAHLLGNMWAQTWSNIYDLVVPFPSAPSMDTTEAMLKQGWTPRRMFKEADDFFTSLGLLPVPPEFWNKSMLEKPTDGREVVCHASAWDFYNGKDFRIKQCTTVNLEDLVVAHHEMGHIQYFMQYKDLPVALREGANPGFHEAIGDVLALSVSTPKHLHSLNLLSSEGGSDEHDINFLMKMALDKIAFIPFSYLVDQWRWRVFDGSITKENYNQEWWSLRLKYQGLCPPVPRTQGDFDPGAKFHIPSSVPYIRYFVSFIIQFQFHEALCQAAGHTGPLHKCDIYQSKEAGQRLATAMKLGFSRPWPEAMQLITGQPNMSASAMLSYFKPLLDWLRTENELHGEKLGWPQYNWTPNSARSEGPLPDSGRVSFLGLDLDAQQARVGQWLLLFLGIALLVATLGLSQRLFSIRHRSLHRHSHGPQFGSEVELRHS
property_measured: IC50

Look up IC50 of `Cc1oc(C)c(S(N)(=O)=O)c1C(=O)O` and report it.
> 1000 µM

###

Assay: Binding affinity to bacterial Metallo-beta-lactamase VIM-2 (unknown origin) assessed as inhibition constant
Design: species or system Bacteria
property_measured: Ki (nM)
Numeric answer only, unit nM assumed.

Look up Ki of `O=C(O)c1ccccc1CCn1c(-c2cccc(-c3ccccc3)c2)n[nH]c1=S` and report it.
38

###

Target: Metallo-beta-lactamase type 2 (Bacteria, UniProt C7C422)
Test: Binding affinity to bacterial NDM-1 (unknown origin) using nitrocefin as substrate assessed as inhibition constant
property_measured: Ki
Remember to follow the number with its unit.

Look up Ki of COC(=O)[C@H]1CN(C(=O)CN(Cc2ccccn2)Cc2ccccn2)C[C@@H]1c1ccc(OCc2ccccc2)c(OC)c1 (racemic) and report it.
4.6 µM

###

Assay: Inhibition of bacterial Metallo-beta-lactamase VIM-2 (unknown origin)
Set-up: species or system Bacteria
Documented IC50 across a set of molecules
Numeric answer only, unit nM assumed.

// known answers, use as guide
Look up IC50 of COP(=O)(CCSC(C)=O)NCc1ccccn1 (stereo not drawn) and report it.
2200

Look up IC50 of `O=C(O)c1ccccc1CCn1c(-c2cccc(-c3ccccc3)c2)n[nH]c1=S` and report it.
80

We next turn to a different molecule, shown below.
Look up IC50 of `Brc1ccc(-c2nnc3n2CCCS3)cc1` and report it.
38400

###

Assay: Cytotoxicity against human HepG2 cells incubated for 24 hrs by CellTiter-Glo assay
Type: toxicity, cell-based
property_measured: CC50 at 24 h

Look up CC50 at 24 h of `Nc1ccc(-c2ccn(S(N)(=O)=O)c2C(=O)O)cn1` and report it.
> 256 mg/L

###

Test: Cytotoxicity against human HEK293 cells assessed as cell viability >533 uM relative to control
Type: toxicity, cell-based
Settings: read-out: Activity
property_measured: viability at 533 µM (%)
Numeric answer only, unit % assumed.

Look up viability at 533 µM of `CCOC(=O)[C@]1(CS)N[C@@H](C(=O)O)C(C)(C)S1` and report it.
85

###

Assay: Cytotoxicity against human HEK293 cells incubated for 24 hrs by MTT assay
Assay type: toxicity, cell-based
property_measured: IC50 at 24 h

Look up IC50 at 24 h of COC(=O)[C@H]1CN(C(=O)CN(Cc2ccccn2)Cc2ccccn2)C[C@@H]1c1ccc(OCc2ccccc2)c(OC)c1 (racemic) and report it.
> 128 µM
